Assay: Assay 5: rat pharmacokinetics
Type: in vivo, male Sprague Dawley rats
Details: male, Sprague Dawley, plasma; rat, IV (1 mg/kg)
Procedure: Assay 5: Rat Pharmacokinetics Assay The objective of this study was to assess the pharmacokinetics of compound (I) in plasma following single oral (PO, n=3) or intravenous (IV, n=2) administration to male Sprague Dawley rats. […] Plasma levels of compound (I) were determined by LC-MS-MS analysis. Standard PK parameters were determined using Phoenix WinNonlin, (Certara Inc.).
readout label: clearance (mL/min/kg)
Answers are plain numbers, in mL/min/kg.

Note down clearance recorded for `CCS(=O)(=O)N1[C@@H]2CCC[C@H]1C[C@H](N(C)c1nc(CO)c(F)c(Nc3cc(C)[nH]n3)n1)C2` 59

Measured values drawn from patent US10774080B2 for this set.
